Tested on: hrR3
Assay: Virucidal assay
Format: cell-based
Details: 37° C.; read-out: Virucidal Activity 37° C. (IC50)
Value kind: IC50 (µM)
# number only, unit µM dropped from output

Enquiry: Recorded IC50 for RQIKIWFPNRRMKWKK [bHOMd] with hrR3, please?
Return: 115
